Reference source for all entries: patent US20020173538A1

Assay: MTT cell viability assay, Hep G2 cells (serum-free DMEM)
Details: human, Hep G2 cells, Cell viability, LOV 5 μM, 96 hr
MEASURED_QUANTITY: viability at 96 h, 5 μM (%)
I only need the number, in %, no unit after it.

**Query** Using the record for "CC[C@H](C)C(=O)O[C@H]1C[C@@H](C)C=C2C=C[C@H](C)[C@H](CC[C@@H]3C[C@@H](O)CC(=O)O3)[C@H]21" , report its viability at 96 h, 5 μM.
**Result** 63.2

----------
Assay: MTT cell viability assay, Hep G2 cells (serum-free DMEM)
Conditions: human, Hep G2 cells, Cell viability, CAO 1.25 μM alone, 96 hr
MEASURED_QUANTITY: viability at 96 h, 1.25 μM (%)
I only need the number, in %, no unit after it.

**Query** Using the record for CCCCCCCCOC(=O)/C=C/c1ccc(O)c(O)c1 [CAO, caffeic acid 1-octyl ester] , report its viability at 96 h, 1.25 μM.
**Result** 74

----------
Assay: MTT cell viability assay, mouse hepatocytes (serum-free RPMI-1640)
Type: cell-based
Details: BALB/c, isolated mouse hepatocytes
MEASURED_QUANTITY: viability at 72 h, 50 μM (%)
I only need the number, in %, no unit after it.

**Query** Using the record for CC[C@H](C)C(=O)O[C@H]1C[C@@H](C)C=C2C=C[C@H](C)[C@H](CC[C@@H]3C[C@@H](O)CC(=O)O3)[C@H]21 [Lovastatin, lovastatin] , report its viability at 72 h, 50 μM.
**Result** 39.1

----------
Test: MTT cell viability assay, Hep G2 cells (serum-free DMEM)
Conditions: human, Hep G2 cells, Cell viability, lovastatin 10 μM 72 hr, then no taxol 72 hr
MEASURED_QUANTITY: viability at 72 hr, 10 μM (%)
I only need the number, in %, no unit after it.

**Query** Using the record for "CC[C@H](C)C(=O)O[C@H]1C[C@@H](C)C=C2C=C[C@H](C)[C@H](CC[C@@H]3C[C@@H](O)CC(=O)O3)[C@H]21" , report its viability at 72 hr, 10 μM.
**Result** 48

----------
Experiment: MTT cell viability assay, Hep G2 cells (serum-free DMEM)
Settings: human, Hep G2 cells, Cell viability, LOV 10 μM, 120 hr
MEASURED_QUANTITY: viability at 120 h, 10 µM (%)
I only need the number, in %, no unit after it.

**Query** Using the record for CC[C@H](C)C(=O)O[C@H]1C[C@@H](C)C=C2C=C[C@H](C)[C@H](CC[C@@H]3C[C@@H](O)CC(=O)O3)[C@H]21 [Lovastatin, lovastatin] , report its viability at 120 h, 10 µM.
**Result** 33.8

----------
Test: MTT cell viability assay, Hep G2 cells (serum-free DMEM)
Settings: human, Hep G2 cells, Cell viability, lovastatin 10 μM 48 hr, then no CAO 48 hr
MEASURED_QUANTITY: viability at 48 h, 10 μM (%)
I only need the number, in %, no unit after it.

**Query** Using the record for "CC[C@H](C)C(=O)O[C@H]1C[C@@H](C)C=C2C=C[C@H](C)[C@H](CC[C@@H]3C[C@@H](O)CC(=O)O3)[C@H]21" , report its viability at 48 h, 10 μM.
**Result** 75

----------
Test: MTT cell viability assay, Hep G2 cells (serum-free DMEM)
Conditions: human, Hep G2 cells, Cell viability, lovastatin 10 μM 48 hr, then no GL-M1 48 hr
MEASURED_QUANTITY: viability at 10 µM (%)
I only need the number, in %, no unit after it.

**Query** Using the record for "CC[C@H](C)C(=O)O[C@H]1C[C@@H](C)C=C2C=C[C@H](C)[C@H](CC[C@@H]3C[C@@H](O)CC(=O)O3)[C@H]21" , report its viability at 10 µM.
**Result** 76.9

----------
Experiment: MTT cell viability assay, Hep G2 cells (serum-free DMEM)
Conditions: human, Hep G2 cells, Cell viability, taxol 10 nM, 120 hr
MEASURED_QUANTITY: viability at 120 h, 10 nM
For clarity, give the value followed by its unit.

**Query** Using the record for "CC(=O)O[C@H]1C(=O)[C@@]2(C)[C@H]([C@H](OC(=O)c3ccccc3)[C@]3(O)C[C@H](OC(=O)[C@H](O)[C@@H](NC(=O)c4ccccc4)c4ccccc4)C(C)=C1C3(C)C)[C@]1(OC(C)=O)CO[C@@H]1C[C@@H]2O" , report its viability at 120 h, 10 nM.
**Result** 19%

----------
Test: MTT cell viability assay, Hep G2 cells (serum-free DMEM)
Conditions: human, Hep G2 cells, Cell viability, no lovastatin 72 hr, then taxol 5 nM 48 hr
MEASURED_QUANTITY: viability at 48 h, 5 nM (%)
I only need the number, in %, no unit after it.

**Query** Using the record for "CC(=O)O[C@H]1C(=O)[C@@]2(C)[C@H]([C@H](OC(=O)c3ccccc3)[C@]3(O)C[C@H](OC(=O)[C@H](O)[C@@H](NC(=O)c4ccccc4)c4ccccc4)C(C)=C1C3(C)C)[C@]1(OC(C)=O)CO[C@@H]1C[C@@H]2O" , report its viability at 48 h, 5 nM.
**Result** 64.2

----------
System: Hep G2 cells
Experiment: MTT cell viability assay, Hep G2 cells (serum-free DMEM)
Conditions: Homo sapiens, HepG2, 72 h, read-out: IC50 (cell viability), 72 hr, Table 4
MEASURED_QUANTITY: pIC50
Just the number, please; pIC50 means minus log10 of the concentration in mol/L.

**Query** Param readout = pIC50; param system = Hep G2 cells; param query = "CC[C@H](C)C(=O)O[C@H]1C[C@@H](C)C=C2C=C[C@H](C)[C@H](CC[C@@H]3C[C@@H](O)CC(=O)O3)[C@H]21" ; response: value
**Result** 4.21

----------
Experiment: MTT cell viability assay, Hep G2 cells (serum-free DMEM)
Conditions: human, Hep G2 cells, Cell viability, taxol 5 nM, 72 hr
MEASURED_QUANTITY: viability at 72 h, 5 nM
For clarity, give the value followed by its unit.

**Query** Using the record for "CC(=O)O[C@H]1C(=O)[C@@]2(C)[C@H]([C@H](OC(=O)c3ccccc3)[C@]3(O)C[C@H](OC(=O)[C@H](O)[C@@H](NC(=O)c4ccccc4)c4ccccc4)C(C)=C1C3(C)C)[C@]1(OC(C)=O)CO[C@@H]1C[C@@H]2O" , report its viability at 72 h, 5 nM.
**Result** 63.7%

----------
Assay: MTT cell viability assay, Hep G2 cells (serum-free DMEM)
Conditions: human, Hep G2 cells, Cell viability, lovastatin 10 μM 48 hr, then no taxol 48 hr
MEASURED_QUANTITY: viability at 48 h, 10 μM (%)
I only need the number, in %, no unit after it.

**Query** Using the record for CC[C@H](C)C(=O)O[C@H]1C[C@@H](C)C=C2C=C[C@H](C)[C@H](CC[C@@H]3C[C@@H](O)CC(=O)O3)[C@H]21 [Lovastatin, lovastatin] , report its viability at 48 h, 10 μM.
**Result** 69.1

----------
Test: MTT cell viability assay, Hep G2 cells (serum-free DMEM)
Conditions: human, Hep G2 cells, Cell viability, LOV 1 μM, 48 hr
MEASURED_QUANTITY: viability at 48 h, 1 μM (%)
I only need the number, in %, no unit after it.

**Query** Using the record for "CC[C@H](C)C(=O)O[C@H]1C[C@@H](C)C=C2C=C[C@H](C)[C@H](CC[C@@H]3C[C@@H](O)CC(=O)O3)[C@H]21" , report its viability at 48 h, 1 μM.
**Result** 91.8

----------
Test: MTT cell viability assay, Hep G2 cells (serum-free DMEM)
Details: human, Hep G2 cells, Cell viability, CAO 5 μM, 72 hr
MEASURED_QUANTITY: viability at 72 h, 5 μM (%)
I only need the number, in %, no unit after it.

**Query** Using the record for "CCCCCCCCOC(=O)/C=C/c1ccc(O)c(O)c1" , report its viability at 72 h, 5 μM.
**Result** 18.1

----------
Assay: MTT cell viability assay, Hep G2 cells (serum-free DMEM)
Settings: human, Hep G2 cells, Cell viability, CAO 10 μM, 48 hr
MEASURED_QUANTITY: viability at 48 h, 10 μM (%)
I only need the number, in %, no unit after it.

**Query** Using the record for CCCCCCCCOC(=O)/C=C/c1ccc(O)c(O)c1 [CAO, caffeic acid 1-octyl ester] , report its viability at 48 h, 10 μM.
**Result** 5.8

----------
Assay: MTT cell viability assay, Hep G2 cells (serum-free DMEM)
Conditions: human, Hep G2 cells, Cell viability, taxol 10 nM alone, 96 hr, Table 10
MEASURED_QUANTITY: viability at 96 h, 10 nM (%)
I only need the number, in %, no unit after it.

**Query** Using the record for "CC(=O)O[C@H]1C(=O)[C@@]2(C)[C@H]([C@H](OC(=O)c3ccccc3)[C@]3(O)C[C@H](OC(=O)[C@H](O)[C@@H](NC(=O)c4ccccc4)c4ccccc4)C(C)=C1C3(C)C)[C@]1(OC(C)=O)CO[C@@H]1C[C@@H]2O" , report its viability at 96 h, 10 nM.
**Result** 24.8
